TD50 values for the compounds below.
System: rodent lifetime carcinogenesis bioassay, tumor incidence TD50
Assay: carcinogenic potency in animals, long-term in vivo studies, CPDB compilation (AID 1745844)
Conditions: mouse; strain B6C3F1; males; in feed; site: forestomach; lesion: squamous-cell carcinoma; dosed 96 weeks; study length 96 weeks

mol=O=C(O)C=Cc1ccc(O)c(O)c1 property_measured=TD50 value="13300 mg/kg/day"

Okay, next one:
Problem: rodent lifetime carcinogenesis bioassay, tumor incidence TD50 / TD50 / `Oc1ccc2c(c1)OCO2` : value?
Result: 3070 mg/kg/day

----------
Tested on: rodent lifetime carcinogenesis bioassay, tumor incidence TD50
Assay: carcinogenic potency in animals, long-term in vivo studies, CPDB compilation (AID 1745844)
Settings: rat; strain Fischer 344; females; in feed; site: mammary gland; lesion: adenocarcinoma, NOS; dosed 78 weeks; study length 106 weeks
property.measured: TD50

Problem: Please give the measured TD50 for this compound: `c1ccc(NNc2ccccc2)cc1`
Result: 11.4 mg/kg/day
